Test system: PPARg:RXRa 30nM:10nM, anti-RXR (NR concentration 30 nM, RXRa partner concentration 10 nM)
Experiment: PBM binding z-score (relative to random genomic background probes); higher = stronger binding; sequences stand for … in GC…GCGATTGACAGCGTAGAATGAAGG

[
  {
    "Monomer Sequence": "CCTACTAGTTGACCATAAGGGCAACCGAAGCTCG",
    "Assayed Target": "PPARg:RXRa 30nM:10nM, anti-RXR (NR concentration 30 nM, RXRa partner concentration 10 nM)",
    "PBM binding z-score": -0.164
  },
  {
    "Monomer Sequence": "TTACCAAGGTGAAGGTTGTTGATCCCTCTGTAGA",
    "Assayed Target": "PPARg:RXRa 30nM:10nM, anti-RXR (NR concentration 30 nM, RXRa partner concentration 10 nM)",
    "PBM binding z-score": 1.07
  },
  {
    "Monomer Sequence": "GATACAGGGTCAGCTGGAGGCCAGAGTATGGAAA",
    "Assayed Target": "PPARg:RXRa 30nM:10nM, anti-RXR (NR concentration 30 nM, RXRa partner concentration 10 nM)",
    "PBM binding z-score": 1.24
  },
  {
    "Monomer Sequence": "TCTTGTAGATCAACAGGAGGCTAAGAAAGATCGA",
    "Assayed Target": "PPARg:RXRa 30nM:10nM, anti-RXR (NR concentration 30 nM, RXRa partner concentration 10 nM)",
    "PBM binding z-score": 2.28
  },
  {
    "Monomer Sequence": "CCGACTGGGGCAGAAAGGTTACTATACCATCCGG",
    "Assayed Target": "PPARg:RXRa 30nM:10nM, anti-RXR (NR concentration 30 nM, RXRa partner concentration 10 nM)",
    "PBM binding z-score": 0.485
  },
  {
    "Monomer Sequence": "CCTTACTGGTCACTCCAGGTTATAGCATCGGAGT",
    "Assayed Target": "PPARg:RXRa 30nM:10nM, anti-RXR (NR concentration 30 nM, RXRa partner concentration 10 nM)",
    "PBM binding z-score": 0.0345
  },
  {
    "Monomer Sequence": "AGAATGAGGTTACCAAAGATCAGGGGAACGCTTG",
    "Assayed Target": "PPARg:RXRa 30nM:10nM, anti-RXR (NR concentration 30 nM, RXRa partner concentration 10 nM)",
    "PBM binding z-score": 1.04
  }
]

Taken from the supplement of paper PMC6555819.
